Target: T1, rat VPAC2 receptor (rat, UniProt P35000 23-437)
T1 sequence (looked up): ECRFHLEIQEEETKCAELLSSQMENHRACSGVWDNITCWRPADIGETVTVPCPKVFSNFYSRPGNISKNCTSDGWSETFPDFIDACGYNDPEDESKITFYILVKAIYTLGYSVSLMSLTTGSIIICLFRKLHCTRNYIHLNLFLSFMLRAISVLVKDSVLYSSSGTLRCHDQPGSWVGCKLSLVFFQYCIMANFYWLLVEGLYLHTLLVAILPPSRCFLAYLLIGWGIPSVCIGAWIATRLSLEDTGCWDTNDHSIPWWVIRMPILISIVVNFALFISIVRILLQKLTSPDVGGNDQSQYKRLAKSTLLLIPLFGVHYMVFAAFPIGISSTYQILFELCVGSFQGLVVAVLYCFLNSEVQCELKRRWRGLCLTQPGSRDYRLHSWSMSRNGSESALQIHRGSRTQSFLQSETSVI
Assay: cell-based or functional assay
Where no end group is shown, it is not given here. [ ]: non-standard residue; d: D form. The star is where a group is joined. Hexanoyl = CCCCCC(=O)*; Aib = CC(C)(N)C(=O)O
Measurement kind: cAMP max

> print(dat)
                                     binder  experimental.result
1  Hexanoyl-HSDAVFTDNYTRLR[Aib]QLAA[Aib]KYLQSIKNKGGPSSGAPPPS (ends and bridges not checked) [P292]                 79.1
2  Hexanoyl-HSDAVFTDNYTRLR[Aib]QVAA[Aib]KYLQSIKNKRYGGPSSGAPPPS (ends and bridges not checked) [P261]                 78.5
3  Hexanoyl-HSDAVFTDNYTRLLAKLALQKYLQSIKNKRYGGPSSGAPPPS (also called VPAC2-P119) [P119]                  133
4  Hexanoyl-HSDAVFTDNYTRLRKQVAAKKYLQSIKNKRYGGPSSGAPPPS (also called VPAC2-P31) [P31]                  134
5  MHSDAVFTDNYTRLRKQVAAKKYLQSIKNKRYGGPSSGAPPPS (N-terminal methionine added (M-), also called VPAC2-P104) [P104]                  129
